Cited source for all entries: paper PMC9841525

# target_of_assay: GlpG (Escherichia coli)
# Sequence (P09391 whole entry): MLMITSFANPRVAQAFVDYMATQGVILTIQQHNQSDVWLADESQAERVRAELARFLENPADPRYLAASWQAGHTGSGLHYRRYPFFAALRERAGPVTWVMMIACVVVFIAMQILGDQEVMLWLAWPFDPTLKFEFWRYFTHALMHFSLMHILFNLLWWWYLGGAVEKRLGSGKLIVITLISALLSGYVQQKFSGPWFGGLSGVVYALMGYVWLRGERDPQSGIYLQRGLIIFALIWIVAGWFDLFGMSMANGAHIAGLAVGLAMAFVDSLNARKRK
measurement_name: IC50 (nM)

{"columns": ["molecule", "target_of_assay", "measurement_name", "units_text", "value_reported"],
 "data": [
  ["CC(=O)N[C@H](C(=O)N[C@@H](CCCNC(=N)N)C(=O)N[C@@H](Cc1c[nH]cn1)C(=O)N[C@@H](C)C(=O)C(=O)NCCCCc1ccccc1)C(C)C [compound 2]", "GlpG (Escherichia coli)", "IC50", "nM", 132]
]}
